This collection of values is drawn from the supplement of paper PMC10065799.

study-target: MERTK (UniProt Q12866)
Sequence (Q12866 whole entry, looked up): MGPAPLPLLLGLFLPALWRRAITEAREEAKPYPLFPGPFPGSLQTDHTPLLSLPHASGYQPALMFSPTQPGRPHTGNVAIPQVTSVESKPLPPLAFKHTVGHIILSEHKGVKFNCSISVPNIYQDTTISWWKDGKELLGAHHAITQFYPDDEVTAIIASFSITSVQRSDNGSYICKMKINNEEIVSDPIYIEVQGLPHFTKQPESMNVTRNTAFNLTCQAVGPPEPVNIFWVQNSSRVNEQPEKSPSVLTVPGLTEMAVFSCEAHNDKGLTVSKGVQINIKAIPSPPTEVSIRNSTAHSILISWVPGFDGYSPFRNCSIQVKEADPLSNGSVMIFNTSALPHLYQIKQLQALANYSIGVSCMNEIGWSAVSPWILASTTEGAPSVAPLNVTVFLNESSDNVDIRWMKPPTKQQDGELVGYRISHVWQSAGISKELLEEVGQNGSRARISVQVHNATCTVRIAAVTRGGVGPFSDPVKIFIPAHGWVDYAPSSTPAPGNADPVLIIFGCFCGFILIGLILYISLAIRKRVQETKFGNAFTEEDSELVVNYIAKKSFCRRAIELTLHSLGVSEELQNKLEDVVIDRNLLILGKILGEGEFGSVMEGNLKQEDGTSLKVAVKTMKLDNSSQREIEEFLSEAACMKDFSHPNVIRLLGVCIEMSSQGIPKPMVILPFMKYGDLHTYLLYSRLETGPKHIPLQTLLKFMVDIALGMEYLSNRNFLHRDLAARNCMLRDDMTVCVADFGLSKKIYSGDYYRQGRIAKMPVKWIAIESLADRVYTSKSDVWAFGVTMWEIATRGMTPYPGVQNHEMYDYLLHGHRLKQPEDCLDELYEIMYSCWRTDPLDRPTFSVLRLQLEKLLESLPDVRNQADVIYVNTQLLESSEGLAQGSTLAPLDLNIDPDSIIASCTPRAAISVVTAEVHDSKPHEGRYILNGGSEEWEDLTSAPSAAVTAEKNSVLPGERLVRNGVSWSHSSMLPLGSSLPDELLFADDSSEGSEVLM
experiment-description: phosphorylation enrichment, bacterial display (enrichment ratio); higher = better substrate or ligand; peptides without Tyr show the background;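 further: 11-residue human phosphosite peptides and single-mutation variants displayed on the E. coli surface, counted by deep sequencing, each peptide's frequency after selection divided by its frequency in the unselected input library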;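 further: frequency after pTyr selection over input frequency; kinase dosed for 20-30% of maximal phosphorylation in three min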
Kindly state phosphorylation enrichment for each of the entries shown.
The response must contain the number and no unit.

Challenge: Enter reported phosphorylation enrichment observed with MERTK (UniProt Q12866) for TNEFEYDELIV [TGM1_Y136_D132N_YF]
Response given: 0.483

Challenge: Enter reported phosphorylation enrichment observed with MERTK (UniProt Q12866) for GTTIHYNYMCN [TP53_Y234_C229G]
Response given: 0.585

Challenge: Enter reported phosphorylation enrichment observed with MERTK (UniProt Q12866) for GASWRYRSGVS [NEU1_Y242_G243R]
Response given: 0.402

Challenge: Enter reported phosphorylation enrichment observed with MERTK (UniProt Q12866) for IFGVSYGEYRY [CFTR_Y512_D513G]
Response given: 0.537

Challenge: Enter reported phosphorylation enrichment observed with MERTK (UniProt Q12866) for FLQTDDTSQVS [FRMPD1_Y846_Y846D]
Response given: 0.622

Challenge: Enter reported phosphorylation enrichment observed with MERTK (UniProt Q12866) for YTFTSYYMHWV [IGHV1-46_Y51]
Response given: 4.16

Challenge: Enter reported phosphorylation enrichment observed with MERTK (UniProt Q12866) for TQPSPYAVYLF [RPGRIP1_Y823_R827L]
Response given: 6.5

Challenge: Enter reported phosphorylation enrichment observed with MERTK (UniProt Q12866) for HVIKLFGACSQ [RET_Y791_Y791F]
Response given: 0.719

Challenge: Enter reported phosphorylation enrichment observed with MERTK (UniProt Q12866) for HSLHDYKEALM [ADA2_Y337]
Response given: 0.431

Challenge: Enter reported phosphorylation enrichment observed with MERTK (UniProt Q12866) for QQLVAYFSKHT [SRC_Y232_A237T_YF]
Response given: 0.382

Challenge: Enter reported phosphorylation enrichment observed with MERTK (UniProt Q12866) for SGDDGYAKDAK [TENM4_Y1530]
Response given: 0.386

Challenge: Enter reported phosphorylation enrichment observed with MERTK (UniProt Q12866) for ERQIRYLNHQL [CEP152_Y268]
Response given: 0.382

Challenge: Enter reported phosphorylation enrichment observed with MERTK (UniProt Q12866) for HHTNEYEFDEL [TGM1_Y134_D132N_YF]
Response given: 0.607

Challenge: Enter reported phosphorylation enrichment observed with MERTK (UniProt Q12866) for TPLSAYQIPRT [GAB2_Y324]
Response given: 0.703
